# testedOn: human Serotonin, 5-Hydroxytryptamine Receptor 6 (5HT6), HTR6 (gene 3362) (UniProt P50406)
# Sequence (P50406 whole entry, looked up): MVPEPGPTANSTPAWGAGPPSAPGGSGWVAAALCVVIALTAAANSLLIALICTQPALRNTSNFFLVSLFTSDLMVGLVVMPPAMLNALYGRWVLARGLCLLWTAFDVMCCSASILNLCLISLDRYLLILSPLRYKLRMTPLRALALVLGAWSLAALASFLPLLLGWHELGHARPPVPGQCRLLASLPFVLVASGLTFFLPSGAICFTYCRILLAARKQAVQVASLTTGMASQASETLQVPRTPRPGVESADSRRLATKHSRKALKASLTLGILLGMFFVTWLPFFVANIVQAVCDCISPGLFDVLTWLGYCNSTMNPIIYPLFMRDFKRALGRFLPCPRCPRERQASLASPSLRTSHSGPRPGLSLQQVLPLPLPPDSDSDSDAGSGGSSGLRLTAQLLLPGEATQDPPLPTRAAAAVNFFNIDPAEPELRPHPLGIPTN
# assayComment: NVS_GPCR_h5HT6: NovaScreen (NVS) G Protein-Coupled Receptor Assay for human Serotonin, 5-Hydroxytryptamine Receptor 6 (5HT6) (AID 2283253)
Records with an inconclusive call do not appear. Active and inactive are the calls of the source. How the source made its calls: active means hit-call score of the fitted dose curve at least 0.9, where 1 is the maximum; inconclusive means response in the unintended direction; inactive means score below 0.9.
Outcome codes: active, inactive

>>> label("[Cl-].[Cl-].[Hg+2]")
"active"
>>> label("CCOC(=O)[C@]1(c2ccccc2)Oc2ccccc2[C@@H]1N")
"active"
>>> label("O=[N+]([O-])c1ccc(Oc2ccc(Cl)cc2Cl)cc1")
"inactive"
>>> label("CCC[CH2][Sn]([Cl])([CH2]CCC)[CH2]CCC")
"active"
